The measurements presented in this section are drawn from PubChem BioAssay AID2060625.

- Test system: 186277-243-T-J2-PDC spheroids with HUVEC/MSC, viability
- assay overview: Anticancer human tumor 186277-243-T-J2-PDC patient-derived colon adenocarcinoma cell line growth inhibition [CLK]
- condition context: second compound 3.16 µM; first compound 0.1 µM; stronger effect = lower value

compound | viability, T/C (%)
C=CC(=O)N1CCN(c2nc(=O)n(-c3c(C)ccnc3C(C)C)c3nc(-c4c(O)cccc4F)c(F)cc23)C(C)C1 (stereo not drawn) + CNC(=O)c1ccc(Nc2nc(OC3CCCC3)c3c(-c4ccc5nc(C)oc5c4)c[nH]c3n2)c(OC)c1 | 38.2
COc1c(OCCCN2CCOCC2)ccc2c3n(c(=NC(=O)c4cnc(N)nc4)nc12)CCN3 + CNC(=O)c1ccc(Nc2nc(OC3CCCC3)c3c(-c4ccc5nc(C)oc5c4)c[nH]c3n2)c(OC)c1 | 4.81
CCN1CCN(Cc2ccc(Nc3ncc(F)c(-c4cc(F)c5nc(C)n(C(C)C)c5c4)n3)nc2)CC1 + CNC(=O)c1ccc(Nc2nc(OC3CCCC3)c3c(-c4ccc5nc(C)oc5c4)c[nH]c3n2)c(OC)c1 | 47

----------
Reported viability, T/C values are given for each entry in this list.
- Test system: 186277-243-T-J2-PDC spheroids with HUVEC/MSC, viability
- assay overview: Anticancer human tumor 186277-243-T-J2-PDC cell line growth inhibition [CLK];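 further: compound exposure lasted seven days before readout; 100% = DMSO vehicle control wells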
- condition context: second compound 0.0316 µM; first compound 0.00316 µM; stronger effect = lower value
metric name: viability, T/C (%)

compound | reported value
Cn1ncnc1[C@H]1c2n[nH]c(=O)c3cc(F)cc(c23)N[C@@H]1c1ccc(F)cc1 + CNC(=O)c1ccc(Nc2nc(OC3CCCC3)c3c(-c4ccc5nc(C)oc5c4)c[nH]c3n2)c(OC)c1 | 107
Cn1ncnc1[C@H]1c2n[nH]c(=O)c3cc(F)cc(c23)N[C@@H]1c1ccc(F)cc1 + CN1CCN(c2cc(C(=O)Nc3cc4cc(-c5cnn(C)c5)ccc4cn3)ccn2)CC1 | 108
CCN1CCN(Cc2ccc(Nc3ncc(F)c(-c4cc(F)c5nc(C)n(C(C)C)c5c4)n3)nc2)CC1 + CN1CCN(c2cc(C(=O)Nc3cc4cc(-c5cnn(C)c5)ccc4cn3)ccn2)CC1 | 85.5
CCc1c2c(nc3ccc(O)cc13)-c1cc3c(c(=O)n1C2)COC(=O)[C@]3(O)CC + CNC(=O)c1ccc(Nc2nc(OC3CCCC3)c3c(-c4ccc5nc(C)oc5c4)c[nH]c3n2)c(OC)c1 | 101
CCN1CCN(Cc2ccc(Nc3ncc(F)c(-c4cc(F)c5nc(C)n(C(C)C)c5c4)n3)nc2)CC1 + CNC(=O)c1ccc(Nc2nc(OC3CCCC3)c3c(-c4ccc5nc(C)oc5c4)c[nH]c3n2)c(OC)c1 | 123

----------
- Test system: 186277-243-T-J2-PDC spheroids with HUVEC/MSC, viability
- assay overview: Anticancer human tumor 186277-243-T-J2-PDC cell line growth inhibition [CLK]; active = viability on the fitted dose curve at most 10% of control; inactive = the rest;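 further: compound exposure lasted seven days before readout; 100% = DMSO vehicle control wells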
- condition context: second compound 10 µM; first compound 1 µM
Labels: active, inactive

compound | study system | group label
CCCS(=O)(=O)Nc1ccc(F)c(C(=O)c2c[nH]c3ncc(-c4ccc(Cl)cc4)cc23)c1F + CN1CCN(c2cc(C(=O)Nc3cc4cc(-c5cnn(C)c5)ccc4cn3)ccn2)CC1 | 186277-243-T-J2-PDC spheroids with HUVEC/MSC, viability | active
O=c1[nH]cc(F)c(=O)[nH]1 + CNC(=O)c1ccc(Nc2nc(OC3CCCC3)c3c(-c4ccc5nc(C)oc5c4)c[nH]c3n2)c(OC)c1 | 186277-243-T-J2-PDC spheroids with HUVEC/MSC, viability | inactive
COc1c(OCCCN2CCOCC2)ccc2c3n(c(=NC(=O)c4cnc(N)nc4)nc12)CCN3 + CNC(=O)c1ccc(Nc2nc(OC3CCCC3)c3c(-c4ccc5nc(C)oc5c4)c[nH]c3n2)c(OC)c1 | 186277-243-T-J2-PDC spheroids with HUVEC/MSC, viability | active
COc1c(OCCCN2CCOCC2)ccc2c3n(c(=NC(=O)c4cnc(N)nc4)nc12)CCN3 + CN1CCN(c2cc(C(=O)Nc3cc4cc(-c5cnn(C)c5)ccc4cn3)ccn2)CC1 | 186277-243-T-J2-PDC spheroids with HUVEC/MSC, viability | active
COc1ccc([C@@H](O)c2cc(-c3ncnc4cc(N5CCOCC5)ccc34)c(F)cc2Cl)nn1 + CNC(=O)c1ccc(Nc2nc(OC3CCCC3)c3c(-c4ccc5nc(C)oc5c4)c[nH]c3n2)c(OC)c1 | 186277-243-T-J2-PDC spheroids with HUVEC/MSC, viability | inactive
CC1(C)CCC(CN2CCN(c3ccc(C(=O)NS(=O)(=O)c4ccc(NCC5CCOCC5)c([N+](=O)[O-])c4)c(Oc4cnc5[nH]ccc5c4)c3)CC2)=C(c2ccc(Cl)cc2)C1 + CN1CCN(c2cc(C(=O)Nc3cc4cc(-c5cnn(C)c5)ccc4cn3)ccn2)CC1 | 186277-243-T-J2-PDC spheroids with HUVEC/MSC, viability | active
CC(CO)NC(=O)c1cc(-c2ccc(Cl)cc2)nn(-c2cnn(C)c2)c1=O (stereo unspecified) + CN1CCN(c2cc(C(=O)Nc3cc4cc(-c5cnn(C)c5)ccc4cn3)ccn2)CC1 | 186277-243-T-J2-PDC spheroids with HUVEC/MSC, viability | active
CC(=O)O[C@H]1C(=O)[C@@]2(C)[C@H]([C@H](OC(=O)c3ccccc3)[C@]3(O)C[C@H](OC(=O)[C@H](O)[C@@H](NC(=O)c4ccccc4)c4ccccc4)C(C)=C1C3(C)C)[C@]1(OC(C)=O)CO[C@@H]1C[C@@H]2O + CNC(=O)c1ccc(Nc2nc(OC3CCCC3)c3c(-c4ccc5nc(C)oc5c4)c[nH]c3n2)c(OC)c1 | 186277-243-T-J2-PDC spheroids with HUVEC/MSC, viability | inactive
O=C(c1cc(Cc2n[nH]c(=O)c3ccccc23)ccc1F)N1CCN(C(=O)C2CC2)CC1 + CN1CCN(c2cc(C(=O)Nc3cc4cc(-c5cnn(C)c5)ccc4cn3)ccn2)CC1 | 186277-243-T-J2-PDC spheroids with HUVEC/MSC, viability | active
COC1C=CCC(C)C(C)S(=O)(=O)NC(=O)c2ccc3c(c2)N(CC2CCC21)CC1(CCCc2cc(Cl)ccc21)CO3 (stereo unspecified) + CN1CCN(c2cc(C(=O)Nc3cc4cc(-c5cnn(C)c5)ccc4cn3)ccn2)CC1 | 186277-243-T-J2-PDC spheroids with HUVEC/MSC, viability | active
Nc1ccccc1NC(=O)c1ccc(CNC(=O)OCc2cccnc2)cc1 + CN1CCN(c2cc(C(=O)Nc3cc4cc(-c5cnn(C)c5)ccc4cn3)ccn2)CC1 | 186277-243-T-J2-PDC spheroids with HUVEC/MSC, viability | active
CC(Nc1ccc2c(c1)OCCn1cc(N3C(=O)OCC3C(F)F)nc1-2)C(N)=O (stereo unspecified) + CNC(=O)c1ccc(Nc2nc(OC3CCCC3)c3c(-c4ccc5nc(C)oc5c4)c[nH]c3n2)c(OC)c1 | 186277-243-T-J2-PDC spheroids with HUVEC/MSC, viability | active
Nc1ccn(C2OC(CO)C(O)C2(F)F)c(=O)n1 (stereo unspecified) + CN1CCN(c2cc(C(=O)Nc3cc4cc(-c5cnn(C)c5)ccc4cn3)ccn2)CC1 | 186277-243-T-J2-PDC spheroids with HUVEC/MSC, viability | active
C=CC(=O)N1CCN(c2nc(=O)n(-c3c(C)ccnc3C(C)C)c3nc(-c4c(O)cccc4F)c(F)cc23)C(C)C1 (stereo unspecified) + CNC(=O)c1ccc(Nc2nc(OC3CCCC3)c3c(-c4ccc5nc(C)oc5c4)c[nH]c3n2)c(OC)c1 | 186277-243-T-J2-PDC spheroids with HUVEC/MSC, viability | inactive
CCCS(=O)(=O)Nc1ccc(F)c(C(=O)c2c[nH]c3ncc(-c4ccc(Cl)cc4)cc23)c1F + CNC(=O)c1ccc(Nc2nc(OC3CCCC3)c3c(-c4ccc5nc(C)oc5c4)c[nH]c3n2)c(OC)c1 | 186277-243-T-J2-PDC spheroids with HUVEC/MSC, viability | inactive
Nc1ccccc1NC(=O)c1ccc(CNC(=O)OCc2cccnc2)cc1 + CNC(=O)c1ccc(Nc2nc(OC3CCCC3)c3c(-c4ccc5nc(C)oc5c4)c[nH]c3n2)c(OC)c1 | 186277-243-T-J2-PDC spheroids with HUVEC/MSC, viability | inactive
C=CC(=O)N1CCN(c2nc(=O)n(-c3c(C)ccnc3C(C)C)c3nc(-c4c(O)cccc4F)c(F)cc23)C(C)C1 (stereo unspecified) + CN1CCN(c2cc(C(=O)Nc3cc4cc(-c5cnn(C)c5)ccc4cn3)ccn2)CC1 | 186277-243-T-J2-PDC spheroids with HUVEC/MSC, viability | active
CCN1CCN(Cc2ccc(Nc3ncc(F)c(-c4cc(F)c5nc(C)n(C(C)C)c5c4)n3)nc2)CC1 + CNC(=O)c1ccc(Nc2nc(OC3CCCC3)c3c(-c4ccc5nc(C)oc5c4)c[nH]c3n2)c(OC)c1 | 186277-243-T-J2-PDC spheroids with HUVEC/MSC, viability | inactive
C=C(F)C(=O)N1CCN(c2nc(OCC3CCCN3C)nc3c2CCN(c2cccc4cccc(Cl)c24)C3)CC1CC#N (stereo unspecified) + CN1CCN(c2cc(C(=O)Nc3cc4cc(-c5cnn(C)c5)ccc4cn3)ccn2)CC1 | 186277-243-T-J2-PDC spheroids with HUVEC/MSC, viability | active
Nc1ccn(C2OC(CO)C(O)C2(F)F)c(=O)n1 (stereo unspecified) + CNC(=O)c1ccc(Nc2nc(OC3CCCC3)c3c(-c4ccc5nc(C)oc5c4)c[nH]c3n2)c(OC)c1 | 186277-243-T-J2-PDC spheroids with HUVEC/MSC, viability | active
CCN1CCN(Cc2ccc(Nc3ncc(F)c(-c4cc(F)c5nc(C)n(C(C)C)c5c4)n3)nc2)CC1 + CN1CCN(c2cc(C(=O)Nc3cc4cc(-c5cnn(C)c5)ccc4cn3)ccn2)CC1 | 186277-243-T-J2-PDC spheroids with HUVEC/MSC, viability | active
